biological target: UniProtKB P50053; experiment: KHK Biochemical Assay (IC50), ADP-Glo, KHK-A; settings: ADP-Glo; average of at least two separate assays
Sequence (P50053 other isoform, or with tags, fused parts or gaps): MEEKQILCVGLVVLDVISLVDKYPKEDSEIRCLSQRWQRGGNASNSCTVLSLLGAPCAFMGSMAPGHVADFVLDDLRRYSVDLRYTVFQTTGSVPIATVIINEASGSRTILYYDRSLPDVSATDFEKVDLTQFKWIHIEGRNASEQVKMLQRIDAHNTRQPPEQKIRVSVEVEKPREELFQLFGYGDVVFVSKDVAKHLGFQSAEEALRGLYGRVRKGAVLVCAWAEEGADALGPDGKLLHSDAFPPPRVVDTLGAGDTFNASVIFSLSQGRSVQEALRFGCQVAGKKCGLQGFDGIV
MEASUREMENT_TYPE: IC50 (nM)
Number only, in nM; omit the unit.

Item C[C@H]1CCN1c1nc(-c2cn[nH]c2)c2c(cnn2C)n1 with UniProtKB P50053 - IC50? 189

Then what about the compound COc1cc(-c2nc(N3CC[C@@H]3C)nc3c2CCC3)ccc1C#N ? 449

Then what about the compound C[C@H]1CCN1c1nc2c(c(-c3cccc(CN4CC(O)C4)c3)n1)CCC2 ? 16.8

Then what about the compound C[C@H]1[C@H](F)CN1c1nc(-c2ccc([C@]3(N)C[S@@](=N)(=O)C3)cc2)c2c(n1)C(F)(F)CC2 ? 7.3
